Reported solubility values are given for each entry in this list.
# MEASUREMENT_NOTES: Solubility of ionic liquid monomers (IL) and their polymers (PIL) in solvents
# Format: physicochemical
# TEST_PARAMETERS: organic solvent or mixture; 10 mg/ml; Ethyl acetate; IL (monomer), first symbol; read-out: Solubility (IL/PIL) Ethyl acetate

C=Cc1cn(CCCCCCCCCC)n[n+]1C :: > 10000 µg/mL

Shift focus to the following entry.
Briefly, solubility measured for "C=Cc1cn(CCOCCOCCOC)n[n+]1C" : > 10000 µg/mL

* * *

# MEASUREMENT_NOTES: Solubility of ionic liquid monomers (IL) and their polymers (PIL) in solvents
# Format: physicochemical
# TEST_PARAMETERS: organic solvent or mixture; 10 mg/ml; DMF; IL (monomer), first symbol; read-out: Solubility (IL/PIL) DMF
TEST_READOUT: solubility

C=Cc1cn(CCCCCCCCCC)n[n+]1C [DMVT] :: > 10000 µg/mL

// next item, solubility requested
solubility reading for C=Cc1cn(CCOCCOCCOC)n[n+]1C [TEGMVT] : > 10000 µg/mL

* * *

# MEASUREMENT_NOTES: Solubility of ionic liquid monomers (IL) and their polymers (PIL) in solvents
# Format: physicochemical
# TEST_PARAMETERS: organic solvent or mixture; 10 mg/ml; MeOH; IL (monomer), first symbol; read-out: Solubility (IL/PIL) MeOH
Examples of molecules with documented solubility follow.

C=Cc1cn(CCCCCCCCCC)n[n+]1C [DMVT] :: > 10000 µg/mL

Documented solubility of C=Cc1cn(CCOCCOCCOC)n[n+]1C [TEGMVT] : > 10000 µg/mL

* * *

Measured solubility, listed per entry.
# MEASUREMENT_NOTES: Solubility of ionic liquid monomers (IL) and their polymers (PIL) in solvents
# Format: physicochemical
# TEST_PARAMETERS: water; 10 mg/ml; H2O; IL (monomer), first symbol; read-out: Solubility (IL/PIL) H2O

C=Cc1cn(CCOCCOCCOC)n[n+]1C :: > 10000 µg/mL

// solubility lookup, compound = "C=Cc1cn(CCCCCCCCCC)n[n+]1C" , result: < 10000 µg/mL
